- experiment-notes: MTT cell viability assay in BV2 microglia cells
- Assay type: cell-based
- experimental-context: mouse, 1 µM, mean ± SD, n = 3
measurement-name: viability at 24 h, 1 µM (%)
Numeric answer only, unit % assumed.

Record excerpt, results attached:
Cc1ccc(CC/C=C/C(=O)/C=C/c2ccccc2)cc1
95.1
COc1cc(/C=C/C(=O)CC(=O)/C=C/c2ccc(O)c(OC)c2)ccc1O [CU, curcumin, reference compound]
97.6
Cc1ccc(CC/C=C/C(=O)/C=C/c2ccc(O)cc2)cc1
99.2
COc1cc(/C=C/C(=O)/C=C/CCc2ccccc2)ccc1O
99.4

Task item: Note down viability at 24 h, 1 µM recorded for COc1cc(/C=C/C(=O)/C=C/CCc2ccc(O)cc2)ccc1O
Reply: 99.4

Task item: Note down viability at 24 h, 1 µM recorded for COc1ccc(CC/C=C/C(=O)/C=C/c2ccccc2)cc1OC
Reply: 106

Task item: Note down viability at 24 h, 1 µM recorded for O=C(/C=C/CCc1ccc(Cl)cc1)/C=C/c1ccccc1
Reply: 95.7

Task item: Note down viability at 24 h, 1 µM recorded for COc1ccc(/C=C/C(=O)/C=C/CCc2ccc(O)cc2)cc1O
Reply: 96.1

* * *

- experiment-notes: MTT cell viability assay in BV2 microglia cells
- Assay type: cell-based
- experimental-context: mouse, 3 µM, mean ± SD, n = 3
measurement-name: viability at 24 h, 3 µM
# output: numeric value plus its unit

Record excerpt, results attached:
COc1cc(/C=C/C(=O)/C=C/CCc2ccc(O)cc2)ccc1O [CU-17]
80.7%
COc1ccc(CC/C=C/C(=O)/C=C/c2ccccc2)cc1 [CU-21]
94.5%
COc1cc(/C=C/C(=O)/C=C/CCc2ccccc2)cc(OC)c1OC [CU-4]
73.9%
O=C(/C=C/CCc1ccc(O)cc1)/C=C/c1ccc(O)cc1 [CU-1]
49.8%

Task item: Note down viability at 24 h, 3 µM recorded for COc1ccc(/C=C/C(=O)/C=C/CCc2ccccc2)cc1OC [CU-19]
Reply: 96.3%

* * *

- experiment-notes: MTT cell viability assay in BV2 microglia cells
- Assay type: cell-based
- experimental-context: mouse, 10 µM, mean ± SD, n = 3
- Protocol: The BV2 microglial cells were purchased from the China Center for Type Culture Collection, CCTCC (Wuhan, Hubei). BV2 microglia cells were incubated in DMEM media supplemented with 10% (v/v) FBS, 100 U/mL penicillin G and […] streptomycin at 37 °C with 5% CO2. Cell viability assays were evaluated using a 3-(4,5-dimethylthiazol-2-yl)-2,5-diphenyltetrazolium bromide (MTT) assay. […] The optical density (A) was measured at […] on a microplate reader. […]
The molecules listed here are annotated with their viability at 24 h, 10 µM.
Numeric answer only, unit % assumed.

COc1cc(/C=C/C(=O)/C=C/CCc2ccc(O)cc2)ccc1O [CU-17]
32.4
COc1ccc(/C=C/C(=O)/C=C/CCc2ccc(O)cc2)cc1O [CU-18]
8.63
COc1ccc(CC/C=C/C(=O)/C=C/c2ccccc2)cc1 [CU-21]
77.9

Task item: Note down viability at 24 h, 10 µM recorded for O=C(/C=C/CCc1ccccc1)/C=C/c1ccc(O)cc1 [CU-7]
Reply: 14.3

Task item: Note down viability at 24 h, 10 µM recorded for O=C(/C=C/CCc1ccc(O)cc1)/C=C/c1ccccc1 [CU-25]
Reply: 20.3

Task item: Note down viability at 24 h, 10 µM recorded for O=C(/C=C/CCc1ccccc1)/C=C/c1ccccc1 [CU-15, (1E,4E)-1,7-diphenyl-1,4-heptadien-3-one]
Reply: 84.2

Task item: Note down viability at 24 h, 10 µM recorded for Cc1ccc(CC/C=C/C(=O)/C=C/c2ccc(O)cc2)cc1 [CU-11]
Reply: 11.2

Task item: Note down viability at 24 h, 10 µM recorded for COc1ccc(/C=C/C(=O)/C=C/CCc2ccccc2)cc1O [CU-8]
Reply: 18.2

Task item: Note down viability at 24 h, 10 µM recorded for O=C(/C=C/CCc1ccccc1)/C=C/c1ccccc1O [CU-5]
Reply: 15.9

Task item: Note down viability at 24 h, 10 µM recorded for O=C(/C=C/CCc1ccc(O)cc1)/C=C/c1ccc(O)cc1 [CU-1]
Reply: 23.7

Task item: Note down viability at 24 h, 10 µM recorded for COc1cc(CC/C=C/C(=O)/C=C/c2ccccc2)cc(OC)c1OC [CU-27]
Reply: 38.9

Task item: Note down viability at 24 h, 10 µM recorded for COc1cc(CC/C=C/C(=O)/C=C/c2ccc(O)cc2)ccc1O [CU-12]
Reply: 12.7

Task item: Note down viability at 24 h, 10 µM recorded for COc1ccc(/C=C/C(=O)/C=C/CCc2ccc(OC)cc2)cc1 [CU-14]
Reply: 18.1

Task item: Note down viability at 24 h, 10 µM recorded for O=C(/C=C/CCc1ccccc1)/C=C/c1cccc(O)c1 [CU-6]
Reply: 102

Task item: Note down viability at 24 h, 10 µM recorded for COc1ccc(/C=C/C(=O)/C=C/CCc2ccccc2)cc1OC [CU-19]
Reply: 67.9
